B1: glmS ribozyme (parent)
chain: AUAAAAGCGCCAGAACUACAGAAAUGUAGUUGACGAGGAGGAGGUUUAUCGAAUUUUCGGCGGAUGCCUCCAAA

# Variants of: B1
# assayNotes: self-cleavage kobs at 160 uM GlcN6P; higher = faster cleavage; RNA array
# testContext: with glucosamine-6-phosphate
Variants at the floor of the assay were thinned out.
self-cleavage kobs at 160 uM GlcN6P for assorted variants

Below: 2 variants and their reported self-cleavage kobs at 160 uM GlcN6P.
INSERT INTO measurements (sequencevariant, propertyname, observed) VALUES
  ('G29U G60U', 'self-cleavage kobs at 160 uM GlcN6P', '< 1e-05 s⁻¹'),
  ('A12G G35U A53U', 'self-cleavage kobs at 160 uM GlcN6P', '< 1e-05 s⁻¹');

Query: self-cleavage kobs at 160 uM GlcN6P; subject: A6C G35C U46A C61A
< 1e-05 s⁻¹

Same lookup for A33G A39U A64U C70G , please.
< 1e-05 s⁻¹

Would you kindly repeat that for U47A U56A ?
0.000539 s⁻¹

Next entry: A6C G62A
< 1e-05 s⁻¹

Follow-up entry: G9U A39U C61A
0.000118 s⁻¹

Next up: A53U U56G
0.000558 s⁻¹

Ok, now C8A C16A G40C U65G
< 1e-05 s⁻¹

// repeat for G29A A36G C58A and report
< 1e-05 s⁻¹

Follow-up entry: C10A G62U
< 1e-05 s⁻¹
